molecular target: AChE in SH-SY5Y cells (Homo sapiens); experiment: cell-based; conditions: potency (IC50), SH-SY5Y cells monolayer
Sequence (P22303 32-614): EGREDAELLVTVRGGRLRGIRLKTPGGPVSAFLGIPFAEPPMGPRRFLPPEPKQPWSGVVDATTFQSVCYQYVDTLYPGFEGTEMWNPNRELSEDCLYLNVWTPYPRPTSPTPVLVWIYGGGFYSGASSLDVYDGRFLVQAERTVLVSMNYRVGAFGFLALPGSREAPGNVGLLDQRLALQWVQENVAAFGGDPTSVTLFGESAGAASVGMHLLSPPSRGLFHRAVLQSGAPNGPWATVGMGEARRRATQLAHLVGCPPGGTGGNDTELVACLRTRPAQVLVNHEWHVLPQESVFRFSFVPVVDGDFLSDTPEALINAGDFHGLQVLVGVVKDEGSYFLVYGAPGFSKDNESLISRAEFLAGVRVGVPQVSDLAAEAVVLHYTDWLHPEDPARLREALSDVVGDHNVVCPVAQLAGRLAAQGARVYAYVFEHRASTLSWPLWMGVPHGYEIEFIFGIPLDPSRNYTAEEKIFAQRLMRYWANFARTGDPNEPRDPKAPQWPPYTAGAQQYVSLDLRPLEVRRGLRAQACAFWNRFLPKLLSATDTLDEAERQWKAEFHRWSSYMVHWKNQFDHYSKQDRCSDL
# Lookup of reported log10 IC50 keyed by entry
Answers are given as log10 of IC50 in µM.

Some entries whose results are on file:
compound: O=C(Nc1cccc(C2=NCCN2)c1)Nc1cccc(C2=NCCN2)c1 [Imidocarb dipropionate, reference compound]
measured-target: AChE in SH-SY5Y cells (Homo sapiens)
endpoint-value: 0.71
//
compound: CCOP(=S)(OCC)Oc1cc(C)nc(C(C)C)n1 [Diazinon]
measured-target: AChE in SH-SY5Y cells (Homo sapiens)
endpoint-value: 1.05
//
compound: CCOP(=S)(OCC)Oc1cnc2ccccc2n1 [Quinalphos]
measured-target: AChE in SH-SY5Y cells (Homo sapiens)
endpoint-value: 1.67

Ask | Any idea what log10 IC50 was measured for CCOC(=O)CCN(SN(C)C(=O)Oc1cccc2c1OC(C)(C)C2)C(C)C [Benfuracarb] ?
Reply | 0.10

Ask | Also check O=c1[nH]c2ccc([S+]([O-])CCN3CCC(Cc4ccc(F)cc4)CC3)cc2o1 (stereo not drawn) [Besonprodil, reference compound]
Reply | 0.93
